# target_entity: Estrogen receptor (Homo sapiens) (UniProt P03372)
# Sequence (P03372 whole entry, looked up): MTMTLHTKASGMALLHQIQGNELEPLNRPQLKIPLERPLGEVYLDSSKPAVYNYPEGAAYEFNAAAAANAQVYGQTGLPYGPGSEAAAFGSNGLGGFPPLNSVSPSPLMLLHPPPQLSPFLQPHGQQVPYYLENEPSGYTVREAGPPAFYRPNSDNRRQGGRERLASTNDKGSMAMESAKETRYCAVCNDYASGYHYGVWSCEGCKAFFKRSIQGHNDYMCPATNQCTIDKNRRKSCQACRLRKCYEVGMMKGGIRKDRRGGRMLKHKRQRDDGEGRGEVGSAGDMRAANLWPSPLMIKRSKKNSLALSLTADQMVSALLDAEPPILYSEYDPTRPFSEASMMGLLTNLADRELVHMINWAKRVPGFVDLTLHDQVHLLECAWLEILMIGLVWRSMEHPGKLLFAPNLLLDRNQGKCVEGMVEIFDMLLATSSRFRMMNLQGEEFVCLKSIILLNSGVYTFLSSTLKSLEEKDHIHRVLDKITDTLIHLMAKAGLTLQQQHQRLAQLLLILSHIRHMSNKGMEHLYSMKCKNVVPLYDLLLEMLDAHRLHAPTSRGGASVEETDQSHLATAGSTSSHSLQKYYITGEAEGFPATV
# assay_overview: qHTS assay for small molecule antagonists of estrogen receptor alpha signaling (AID 588513); also: potency is read from the fitted curve at half-maximal effect
# assay_conditions: ER-alpha-UAS-bla HEK293, beta-lactamase ratio, antagonist mode; series mostly up to 76.9 µM
# Protocol: NIH Chemical Genomics Center [NCGC] U.S. Environmental Protection Agency [EPA] National Institutes of Environmental Health Sciences [NIEHS] National Toxicology Program [NTP] […] Using a beta-lactamase reporter-gene under control of the ER response element, a cell-based assay [ER-alpha-UAS-bla GripTiteTM cell-Based Assay from Invitrogen] was used to measure ER-alpha signaling pathway in antagonist mode. […] Library compounds were measured for their ability to inhibit the reporter gene activity. […]
Activity calls are given as the source filed them. Calls follow the shape of the dose curve; as a rule, active = well fitted curve in the direction sought with a large enough effect in the signal ratio, with a control signal flat (not every such curve was filed as active); inconclusive = small, poorly fitted or top-dose-only effect, or effect the other way, or a change in a side signal; inactive = no such curve, though single readings can be large or run the other way; the % refers to the signal ratio.
readout_kind: Potency

Solved cases below.
1) COCC(=O)N(c1c(C)cccc1C)C(C)C(=O)OC (stereo unspecified) = inactive
2) Oc1c(Br)cc(Br)cc1Br = inactive
3) C[C@H]1C(=O)O[C@@H]2CCN3CC=C(COC(=O)[C@](C)(O)[C@]1(C)O)[C@H]23 = inactive
4) NC(N)=NC(=O)c1nc(Cl)c(N)nc1N = inactive

Req: Please indicate Potency recorded for CCCCCCCCCCCC[N+](C)(C)CCOc1ccccc1
Resp: 12.6 µM [inconclusive] (active)

Req: Please indicate Potency recorded for Oc1ccc(Cl)cc1Cc1cc(Cl)ccc1O
Resp: 44.7 µM [inconclusive] (active)

###

# Test system: SKOV3
# assay_overview: Primary qHTS to identify gynecologic anti-cancer compounds using libraries of approved drugs and bioactive compounds (AID 1345084); also: nearly all actives have a fitted effect of over 55% in size
# assay_conditions: Gynecologic cancer cell panel viability, ATPlite luminescence, 48 h; series mostly up to 57.5 µM
Records with an inconclusive call do not appear. Active and inactive are the calls of the source. Calls follow the shape of the dose curve; as a rule, active = well fitted cell-killing curve with a large enough effect; inconclusive = small, poorly fitted or top-dose-only effect, or effect the other way; inactive = flat fitted curve, though single readings scatter.
Classes to choose from: True for active, False for inactive

Req: Recorded test call requested for CC(Cc1ccc2c(c1)OCO2)NO (centres undefined)
Resp: False

Req: Recorded test call requested for C[C@]12CC[C@H]3[C@@H](CCC4=CC(=O)CC[C@@H]43)[C@@H]1CC[C@@H]2O
Resp: False

Req: Recorded test call requested for CC(Cc1ccccc1)NCCCCl (centres undefined)
Resp: False

Req: Recorded test call requested for COc1cc(N)c(Cl)cc1C(=O)NC1CN2CCC1CC2 (centres undefined)
Resp: False

Req: Recorded test call requested for OC(c1ccccc1)(c1ccccc1)C1CCNCC1
Resp: False

Req: Recorded test call requested for Cc1ccc(N=CN(C)C=Nc2ccc(C)cc2C)c(C)c1
Resp: False

Req: Recorded test call requested for CN1C[C@@H](NS(=O)(=O)N(C)C)C[C@@H]2c3cccc4c3c(cn4C)C[C@H]21
Resp: False

Req: Recorded test call requested for NC(=O)OCCCc1ccccc1
Resp: False

Req: Recorded test call requested for O=C(CCCCl)c1ccc(F)cc1
Resp: False

Req: Recorded test call requested for CC(C)[N+](C)(CCC(C(N)=O)(c1ccccc1)c1ccccc1)C(C)C
Resp: False

Req: Recorded test call requested for C[C@]12CC[C@H]3[C@@H](CC=C4C[C@@H](O)CC[C@@]43C)[C@@H]1CC[C@@H]2O
Resp: False

Req: Recorded test call requested for O=C(CCCN1CCC(n2c(=O)[nH]c3ccccc32)CC1)c1ccc(F)cc1
Resp: False

Req: Recorded test call requested for CCOC(C(=O)OCCN(C)C)(c1ccccc1)c1ccccc1
Resp: False

Req: Recorded test call requested for Oc1c(Br)cc(Br)cc1Br
Resp: False

Req: Recorded test call requested for NCc1cccnc1
Resp: False

Req: Recorded test call requested for CC(CC(C(N)=O)(c1ccccc1)c1ccccc1)N(C)C (centres undefined)
Resp: False

Req: Recorded test call requested for CCN1CCCC1CNC(=O)C(O)(c1ccccc1)c1ccccc1 (centres undefined)
Resp: False

Req: Recorded test call requested for O=c1[nH]c2cc(Cl)ccc2n1C1CCNCC1
Resp: False

Req: Recorded test call requested for CCS(=O)(=O)C(C)(C)S(=O)(=O)CC
Resp: False

Req: Recorded test call requested for CN1CCc2cc(Cl)c(O)cc2[C@H]2c3ccccc3CC[C@@H]21
Resp: False

Req: Recorded test call requested for C=CCN1CC[C@]23CCCC[C@H]2[C@H]1Cc1ccc(O)cc13
Resp: False

Req: Recorded test call requested for COc1cc(C[C@@H](C)N)c(OC)cc1C
Resp: False

Req: Recorded test call requested for CC(C(O)c1ccccc1)N(C)C/C=C/c1ccccc1 (centres undefined)
Resp: False

Req: Recorded test call requested for CC(C)NCC(O)c1ccc(N)c(C#N)c1 (centres undefined)
Resp: False

Req: Recorded test call requested for Nc1ccccc1C(=O)OCC(O)CO (centres undefined)
Resp: False

Req: Recorded test call requested for C[C@@H]1C[C@@H]([C@H](O)CC2CC(=O)NC(=O)C2)C(=O)[C@@H](C)C1
Resp: True

Req: Recorded test call requested for O=C(O)c1nn(Cc2ccc(Cl)cc2Cl)c2ccccc12
Resp: False

Req: Recorded test call requested for COP(=S)(OC)Oc1ccc(Sc2ccc(OP(=S)(OC)OC)cc2)cc1
Resp: False

Req: Recorded test call requested for c1ccc2c(c1)Sc1ccccc1N2CC1CN2CCC1CC2 (centres undefined)
Resp: True

Req: Recorded test call requested for C[C@H](N)[C@H](O)c1ccc(O)c(O)c1
Resp: True

Req: Recorded test call requested for Nc1ccc(Cl)cc1C(=O)c1ccccc1F
Resp: False

Req: Recorded test call requested for CCCCC1C(=O)NC(=O)N(C2CCCCC2)C1=O (centres undefined)
Resp: False

Req: Recorded test call requested for CCC(=O)OC1(c2ccccc2)CCN(C)CC1
Resp: False

Req: Recorded test call requested for COc1cc(C[C@@H](C)N)c(OC)cc1Br
Resp: False

Req: Recorded test call requested for CCC1(CC)C(=O)NC(=O)NC1=O
Resp: False

Req: Recorded test call requested for O=C(O)Cc1ccccc1
Resp: False

Req: Recorded test call requested for C[C@]12CC[C@H]3[C@@H](CCC4=CC(=O)CC[C@@]43C)[C@@H]1CC[C@@H]2C(=O)O
Resp: False

Req: Recorded test call requested for CCNc1nc(Cl)nc(NCC)n1
Resp: False

Req: Recorded test call requested for CCC(=O)O[C@H]1CC[C@H]2[C@@H]3CCC4=CC(=O)CC[C@]4(C)[C@H]3CC[C@]12C
Resp: False

Req: Recorded test call requested for C[N+]1(C)[C@@H]2CC[C@H]1CC(OC(=O)C(CO)c1ccccc1)C2 (some centres undefined)
Resp: False

Req: Recorded test call requested for C[C@H]1CNCCc2ccc(Cl)cc21
Resp: False

Req: Recorded test call requested for Oc1ccc([C@H]2CNCc3c2ccc(O)c3O)cc1O
Resp: False

Req: Recorded test call requested for CC(C)(C)OC(=O)c1ncn2c1[C@@H]1CCCN1C(=O)c1c(Br)cccc1-2
Resp: False

Req: Recorded test call requested for Oc1ccc2[nH]cc(CCCCN3CC=C(c4ccccc4)CC3)c2c1
Resp: False

Req: Recorded test call requested for ClCc1cccc(Cl)c1
Resp: False

Req: Recorded test call requested for CCOC(=O)C(c1c(O)c2ccccc2oc1=O)c1c(O)c2ccccc2oc1=O
Resp: False

Req: Recorded test call requested for O=C(CCl)c1ccc(Cl)cc1Cl
Resp: False

Req: Recorded test call requested for CCN(CC)C(C)C(=O)c1ccccc1 (centres undefined)
Resp: False

Req: Recorded test call requested for CCOC(=O)C1(c2ccccc2)CCN(CCc2ccc(N)cc2)CC1
Resp: False

###

# assay_conditions: Ebola virus entry assay, reporter ratio channel; Channel type: primary
Activity calls are given as the source filed them.
readout_kind: AC50

Solved cases below.
1. c1ccc(CCNc2nc(-c3ccccc3)cs2)cc1 = 39.8 µM (active)
2. CCC1Nc2cc(Cl)c(S(N)(=O)=O)cc2S(=O)(=O)N1 (stereo not given) = inactive
3. COc1ccc(S(=O)(=O)N2c3ccc(Cl)cc3[C@@](O)(c3ccccc3Cl)[C@H]2C(=O)N2CCC[C@@H]2C(N)=O)cc1OC = 10 µM (active)
4. Cc1nnc2n1-c1sc(CCC(=O)N3CCOCC3)cc1C(c1ccccc1Cl)=NC2 = inactive
5. CC(C(=O)O)c1ccc(CC2CCCC2=O)cc1 (stereo not given) = inactive

Req: Please indicate AC50 recorded for COc1ccc2[nH]c(S(=O)Cc3ncc(C)c(OC)c3C)nc2n1 (stereo not given)
Resp: inactive

Req: Please indicate AC50 recorded for CC(C)N=C(N)/N=C(\N)Nc1ccc(Cl)cc1
Resp: 39.8 µM (active)

###

# Test system: AS120
# assay_overview: qHTS profiling for inhibitors of Plasmodium falciparum proliferation (AID 504749); also: nearly all actives have a fitted effect of over 60% in size
# assay_conditions: P. falciparum in erythrocytes, SYBR Green DNA, 72 h; series mostly up to 28.7 µM
Inconclusive results are not listed. Activity calls are given as the source filed them. The call rests on the fitted dose curve; in most records, active means well fitted inhibition curve with a large enough effect; inconclusive means small, poorly fitted or top-dose-only effect; inactive means flat fitted curve, though single readings scatter.
Classes to choose from: active, inactive

Req: Recorded test call requested for c1ccc2nc(N3CCNCC3)ccc2c1
Resp: inactive

Req: Recorded test call requested for CCC1(c2ccccc2)CCC(=O)NC1=O (centres undefined)
Resp: inactive

Req: Recorded test call requested for CCS(=O)(=O)C(C)(C)S(=O)(=O)CC
Resp: inactive

Req: Recorded test call requested for C[C@H]1C(=O)O[C@@H]2CCN3CC=C(COC(=O)[C@](C)(O)[C@]1(C)O)[C@H]23
Resp: inactive

Req: Recorded test call requested for O=C(NC(=O)c1c(F)cccc1F)Nc1cc(Cl)c(OC(F)(F)C(F)C(F)(F)F)cc1Cl (centres undefined)
Resp: active

Req: Recorded test call requested for COP(=O)(OC)OC=C(Cl)Cl
Resp: inactive

Req: Recorded test call requested for C[C@]12C=CC(=O)C=C1CC[C@@H]1[C@@H]2CC[C@@]2(C)[C@H]1CC[C@]2(C)O
Resp: inactive

Req: Recorded test call requested for NC(=O)OCCCc1ccccc1
Resp: inactive

Req: Recorded test call requested for Cc1c(Cl)c(=O)oc2cc(OP(=O)(OCCCl)OCCCl)ccc12
Resp: active

Req: Recorded test call requested for Oc1c(Br)cc(Br)cc1Br
Resp: inactive

Req: Recorded test call requested for CC(C)NCC(O)c1ccc(N)c(C#N)c1 (centres undefined)
Resp: inactive

Req: Recorded test call requested for CC(C)(C)OC(=O)c1ncn2c1[C@@H]1CCCN1C(=O)c1c(Br)cccc1-2
Resp: inactive

Req: Recorded test call requested for CNC(=O)NC(O)C(Cl)(Cl)Cl (centres undefined)
Resp: inactive

Req: Recorded test call requested for NC(=O)CN1CCCC1=O
Resp: inactive

Req: Recorded test call requested for Clc1ccc(CO/N=C(\Cn2ccnc2)c2ccc(Cl)cc2Cl)c(Cl)c1
Resp: active

Req: Recorded test call requested for O=C(O)c1nn(Cc2ccc(Cl)cc2Cl)c2ccccc12
Resp: inactive

Req: Recorded test call requested for CNC(=O)Oc1cccc2ccccc12
Resp: inactive

Req: Recorded test call requested for C=CCOC(Cn1ccnc1)c1ccc(Cl)cc1Cl (centres undefined)
Resp: active

Req: Recorded test call requested for CN1C(=O)CN=C(c2ccccc2)c2cc([N+](=O)[O-])ccc21
Resp: inactive
